# Mic. flavus: MIC values follow
Just the number please, in mg/L, no unit attached.

Reference set, count: 3
[
  {
    "molecule": "CC[C@@]1(O)C[C@H](O[C@H]2C[C@H](NC)[C@H](O[C@H]3C[C@H](O)[C@H](O[C@H]4CCC(=O)[C@H](C)O4)[C@H](C)O3)[C@H](C)O2)c2c(cc3c(c2O)C(=O)c2c(O)cccc2C3=O)[C@H]1C(=O)OC",
    "measured.target": "Mic. flavus",
    "MIC [mg/L]": 0.2
  },
  {
    "molecule": "CC[C@@]1(O)C[C@H](O[C@H]2C[C@H](N(C)C)[C@H](O[C@H]3C[C@H](O)[C@H](O[C@H]4CC[C@H](O)[C@H](C)O4)[C@H](C)O3)[C@H](C)O2)c2c(cc3c(c2O)C(=O)c2c(O)cccc2C3=O)[C@H]1C(=O)OC",
    "measured.target": "Mic. flavus",
    "MIC [mg/L]": 0.4
  },
  {
    "molecule": "CC[C@@]1(O)C[C@H](O[C@H]2C[C@H](N(C)C)[C@H](O[C@H]3C[C@H](O)[C@H](OC4CCC(=O)C(C)O4)[C@H](C)O3)[C@H](C)O2)c2c(cc3c(c2O)C(=O)c2c(O)ccc(O)c2C3=O)[C@H]1C(=O)OC (stereo partly shown)",
    "measured.target": "Mic. flavus",
    "MIC [mg/L]": 0.2
  }
]

# input for lookup
Challenge: Let me know recorded MIC for CC[C@@]1(O)C[C@H](O[C@H]2C[C@H](N(C)C)[C@H](O[C@H]3C[C@H](O)[C@H](O)[C@H](C)O3)[C@H](C)O2)c2c(cc3c(c2O)C(=O)c2c(O)cccc2C3=O)[C@H]1C(=O)OC , thanks.
Response given: 1.56

====

Reported values of LD50 for individual entries
Test: Acute toxicity, single intraperitoneal injection
Settings: mouse, in vivo, ip; single i.p. injection, dd mice; read-out: LD50, intraperitoneal administration
Just the number please, in mg/kg, no unit attached.

[
  {
    "compound": "CC[C@@]1(O)C[C@H](O[C@H]2C[C@H](N(C)C)[C@H](O[C@H]3C[C@H](O)[C@H](O[C@H]4C[C@H](O)[C@H](O)[C@H](C)O4)[C@H](C)O3)[C@H](C)O2)c2c(cc3c(c2O)C(=O)c2c(O)cccc2C3=O)[C@H]1C(=O)OC",
    "unit.string": "mg/kg",
    "LD50": 30.2
  },
  {
    "compound": "CC[C@@]1(O)C[C@H](O[C@H]2C[C@H](N(C)C)[C@H](O[C@H]3C[C@H](O)[C@H](O)[C@H](C)O3)[C@H](C)O2)c2c(cc3c(c2O)C(=O)c2c(O)cccc2C3=O)[C@H]1C(=O)OC",
    "unit.string": "mg/kg",
    "LD50": 24.4
  },
  {
    "compound": "CC[C@@]1(O)C[C@H](O[C@H]2C[C@H](N(C)C)[C@H](O[C@H]3C[C@H](O)[C@H](O[C@H]4CC[C@H](O)[C@H](C)O4)[C@H](C)O3)[C@H](C)O2)c2c(cc3c(c2O)C(=O)c2c(O)cccc2C3=O)[C@H]1C(=O)OC",
    "unit.string": "mg/kg",
    "LD50": 32.5
  }
]

Challenge: Let me know recorded LD50 for CC[C@@]1(O)C[C@H](O[C@H]2C[C@H](N(C)C)[C@H](O[C@H]3C[C@H](O)[C@H](O)[C@H](C)O3)[C@H](C)O2)c2c(cc3c(c2O)C(=O)c2c(O)ccc(O)c2C3=O)[C@H]1C(=O)OC , thanks.
Response given: 12.5

Challenge: Let me know recorded LD50 for CC[C@@]1(O)C[C@H](O[C@H]2C[C@H](NC)[C@H](O[C@H]3C[C@H](O)[C@H](O[C@H]4CCC(=O)[C@H](C)O4)[C@H](C)O3)[C@H](C)O2)c2c(cc3c(c2O)C(=O)c2c(O)cccc2C3=O)[C@H]1C(=O)OC , thanks.
Response given: 45.5

Challenge: Let me know recorded LD50 for CC[C@@]1(O)C[C@H](O[C@H]2C[C@H](N(C)C)[C@H](O[C@H]3C[C@H](O)[C@H](OC4CCC(=O)C(C)O4)[C@H](C)O3)[C@H](C)O2)c2c(cc3c(c2O)C(=O)c2c(O)cccc2C3=O)[C@H]1C(=O)OC (stereo partly drawn) , thanks.
Response given: 28.5

Challenge: Let me know recorded LD50 for CC[C@@]1(O)C[C@H](O[C@H]2C[C@H](N(C)C)[C@H](O[C@H]3C[C@H](O)[C@H](OC4CCC(=O)C(C)O4)[C@H](C)O3)[C@H](C)O2)c2c(cc3c(c2O)C(=O)c2c(O)ccc(O)c2C3=O)[C@H]1C(=O)OC (stereo partly drawn) , thanks.
Response given: 17

Challenge: Let me know recorded LD50 for CC[C@@]1(O)C[C@H](O[C@H]2C[C@H](N(C)C)[C@H](O[C@H]3C[C@H](O)[C@H](O[C@H]4C[C@H](O)[C@H](O)[C@H](C)O4)[C@H](C)O3)[C@H](C)O2)c2c(cc3c(c2O)C(=O)c2c(O)ccc(O)c2C3=O)[C@H]1C(=O)OC , thanks.
Response given: 14.5

====

# Staph. aureus Smith: MIC values follow
Just the number please, in µg/mL, no unit attached.

Reference set, count: 3
[
  {
    "compound": "CC[C@@]1(O)C[C@H](O[C@H]2C[C@H](N(C)C)[C@H](O[C@H]3C[C@H](O)[C@H](O[C@H]4C=CC(=O)[C@H](C)O4)[C@H](C)O3)[C@H](C)O2)c2c(cc3c(c2O)C(=O)c2c(O)cccc2C3=O)[C@H]1C(=O)OC",
    "property.name": "MIC",
    "recorded.measurement": 0.2
  },
  {
    "compound": "CC[C@@]1(O)C[C@H](O[C@H]2C[C@H](N(C)C)[C@H](O[C@H]3C[C@H](O)[C@H](O[C@H]4CC[C@H](O)[C@H](C)O4)[C@H](C)O3)[C@H](C)O2)c2c(cc3c(c2O)C(=O)c2c(O)cccc2C3=O)[C@H]1C(=O)OC",
    "property.name": "MIC",
    "recorded.measurement": 0.78
  },
  {
    "compound": "CC[C@@]1(O)C[C@H](O[C@H]2C[C@H](NC)[C@H](O[C@H]3C[C@H](O)[C@H](O[C@H]4CCC(=O)[C@H](C)O4)[C@H](C)O3)[C@H](C)O2)c2c(cc3c(c2O)C(=O)c2c(O)cccc2C3=O)[C@H]1C(=O)OC",
    "property.name": "MIC",
    "recorded.measurement": 1.56
  }
]

# input for lookup
Challenge: Let me know recorded MIC for CC[C@@]1(O)C[C@H](O[C@H]2C[C@H](N(C)C)[C@H](O[C@H]3C[C@H](O)[C@H](OC4CCC(=O)C(C)O4)[C@H](C)O3)[C@H](C)O2)c2c(cc3c(c2O)C(=O)c2c(O)cccc2C3=O)[C@H]1C(=O)OC (stereo partly shown) , thanks.
Response given: 1.56

====

# Mic. flavus: MIC values follow
Just the number please, in µg/mL, no unit attached.

[
  {
    "given.smiles": "CC[C@@]1(O)C[C@H](O[C@H]2C[C@H](N(C)C)[C@H](O[C@H]3C[C@H](O)[C@H](O)[C@H](C)O3)[C@H](C)O2)c2c(cc3c(c2O)C(=O)c2c(O)ccc(O)c2C3=O)[C@H]1C(=O)OC",
    "measured.target": "Mic. flavus",
    "unit.string": "µg/mL",
    "recorded.measurement": 0.78
  }
]

# input for lookup
Challenge: Recall the reported MIC of CC[C@@]1(O)C[C@H](O[C@H]2C[C@H](N(C)C)[C@H](O[C@H]3C[C@H](O)[C@H](O[C@H]4C[C@H](O)[C@H](O)[C@H](C)O4)[C@H](C)O3)[C@H](C)O2)c2c(cc3c(c2O)C(=O)c2c(O)cccc2C3=O)[C@H]1C(=O)OC when tested on Mic. flavus.
Response given: 1.56

====

Test system: Sar. lutea ATCC 9341
property.name: MIC (µg/mL)
Just the number please, in µg/mL, no unit attached.

Challenge: Recall the reported MIC of CC[C@@]1(O)C[C@H](O[C@H]2C[C@H](N(C)C)[C@H](O[C@H]3C[C@H](O)[C@H](O[C@H]4CC[C@H](O)[C@H](C)O4)[C@H](C)O3)[C@H](C)O2)c2c(cc3c(c2O)C(=O)c2c(O)cccc2C3=O)[C@H]1C(=O)OC when tested on Sar. lutea ATCC 9341.
Response given: 0.78

====

System: L1210 cells
Assay: Growth inhibition of cultured L1210 cells
Settings: Mus musculus, L1210, read-out: % Inhibition, Growth (on Day 2)
Reported values of inhibition at 0.1 µg/mL for individual entries
Just the number please, in %, no unit attached.

Challenge: Let me know recorded inhibition at 0.1 µg/mL for CC[C@@]1(O)C[C@H](O[C@H]2C[C@H](N(C)C)[C@H](O[C@H]3C[C@H](O)[C@H](O)[C@H](C)O3)[C@H](C)O2)c2c(cc3c(c2O)C(=O)c2c(O)ccc(O)c2C3=O)[C@H]1C(=O)OC [MA 144-S2] , thanks.
Response given: 88.1
